Origin of measurements: patent US10550102B2

SYSTEM TESTED: soluble guanylate cyclase (human GUCYA3 and GUCYB3) overexpressed in CHO cells (Homo sapiens (Human), UniProt Q02108+Q02153)
Sequence (Q02108 whole entry partner): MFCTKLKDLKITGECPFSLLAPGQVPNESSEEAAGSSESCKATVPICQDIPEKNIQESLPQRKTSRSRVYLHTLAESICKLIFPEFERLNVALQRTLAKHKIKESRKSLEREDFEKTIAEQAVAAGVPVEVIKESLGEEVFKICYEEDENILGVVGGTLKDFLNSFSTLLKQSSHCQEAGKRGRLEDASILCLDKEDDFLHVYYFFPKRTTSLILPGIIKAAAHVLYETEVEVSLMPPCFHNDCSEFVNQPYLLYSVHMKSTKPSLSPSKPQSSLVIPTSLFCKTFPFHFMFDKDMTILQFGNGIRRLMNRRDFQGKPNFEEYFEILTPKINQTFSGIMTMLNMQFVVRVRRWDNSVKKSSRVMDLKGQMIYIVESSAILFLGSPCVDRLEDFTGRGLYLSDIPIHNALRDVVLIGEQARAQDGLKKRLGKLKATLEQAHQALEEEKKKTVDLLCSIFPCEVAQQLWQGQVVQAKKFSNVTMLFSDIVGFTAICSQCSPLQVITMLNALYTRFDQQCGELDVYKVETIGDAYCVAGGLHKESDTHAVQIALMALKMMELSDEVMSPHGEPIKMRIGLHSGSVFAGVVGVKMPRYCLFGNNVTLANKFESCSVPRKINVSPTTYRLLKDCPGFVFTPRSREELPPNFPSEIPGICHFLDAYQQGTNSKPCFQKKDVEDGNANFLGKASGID
Sequence (Q02153 whole entry): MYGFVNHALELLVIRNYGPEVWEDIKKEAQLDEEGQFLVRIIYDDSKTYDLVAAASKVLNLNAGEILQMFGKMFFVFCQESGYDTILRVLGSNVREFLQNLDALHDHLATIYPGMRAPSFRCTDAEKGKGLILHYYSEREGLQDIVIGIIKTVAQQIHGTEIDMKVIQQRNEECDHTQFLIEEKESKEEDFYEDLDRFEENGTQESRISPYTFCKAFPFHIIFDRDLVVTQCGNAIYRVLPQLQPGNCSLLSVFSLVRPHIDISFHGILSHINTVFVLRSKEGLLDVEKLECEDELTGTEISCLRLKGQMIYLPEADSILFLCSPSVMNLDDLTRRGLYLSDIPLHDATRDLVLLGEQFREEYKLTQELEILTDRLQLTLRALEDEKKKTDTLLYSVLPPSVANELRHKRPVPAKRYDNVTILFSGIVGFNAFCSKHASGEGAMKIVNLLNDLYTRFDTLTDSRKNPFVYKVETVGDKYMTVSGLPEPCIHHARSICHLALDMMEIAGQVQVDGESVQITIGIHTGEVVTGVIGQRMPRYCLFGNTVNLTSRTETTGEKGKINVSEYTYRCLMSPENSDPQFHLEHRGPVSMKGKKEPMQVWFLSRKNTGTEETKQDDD
PROTOCOL NOTES: CHO cellular assay (cGMP production, Cisbio cGMP HTRF kit)
Format: cell-based
EXPERIMENTAL SETUP: EC50 (nM)
ASSAY ENDPOINT: EC50 (nM)

>>> endpoint_value("CCc1cc(O[C@H]2CCc3cccc(-c4cccc(-n5ncc(C(=O)O)c5CC)n4)c32)ccc1C1CCN(C(=O)OCC(C)C)CC1 [Example 64-2]")
3
>>> endpoint_value("CCc1cc(O[C@H]2CCc3cccc(-c4cccc(-n5ncc(C(=O)O)c5CC)n4)c32)ccc1C1CCN(C(=O)OC(C)C)CC1 [Example 64-3]")
1

###

pEC50 values for the molecules below.
SYSTEM TESTED: soluble guanylate cyclase (human GUCYA3 and GUCYB3) overexpressed in CHO cells (Homo sapiens (Human), UniProt Q02108+Q02153)
PROTOCOL NOTES: CHO cellular assay (cGMP production, Cisbio cGMP HTRF kit)
Format: cell-based
EXPERIMENTAL SETUP: CHO GUCY clone 8E10, cGMP production, assay buffer with 1 mM IBMX and 20 uM ODQ, 1 h room temperature; minimum quantification limit 0.5 nM (listed 0.5 nM means ≤0.5 nM); read-out: EC50
pEC50: −log10 of the molar value.
ASSAY ENDPOINT: pEC50

>>> endpoint_value("CCc1cc(CN2c3c(cccc3-c3cccc(-n4ncc(C(=O)O)c4CC)n3)CC2C)ccc1C1CCN(C(=O)C2CC2)CC1 (single isomer, unassigned; (+)) [Example 22a]")
9.00
>>> endpoint_value("Cc1cc(C2CCN(C(=O)C3CC3)CC2)ccc1OC1CCc2cccc(-c3cccc(-n4ncc(C(=O)O)c4C(F)(F)F)n3)c21 (single isomer, unassigned; (+)) [Example 3a]")
9.00
>>> endpoint_value("CCc1c(C(=O)O)cnn1-c1cccc(-c2cccc3c2C(Cc2ccc(C4CCN(C(=O)[C@H](C)O)CC4)cc2C)CC3)n1 (single isomer, unassigned; (-)) [40-2 (−)]")
7.60

###

# EC50 annotations
SYSTEM TESTED: soluble guanylate cyclase (human GUCYA3 and GUCYB3) overexpressed in CHO cells (Homo sapiens (Human), UniProt Q02108+Q02153)
PROTOCOL NOTES: CHO cellular assay (cGMP production, Cisbio cGMP HTRF kit)
Type: cell-based
EXPERIMENTAL SETUP: CHO GUCY clone 8E10, cGMP production, assay buffer with 1 mM IBMX and 20 uM ODQ, 1 h room temperature; minimum quantification limit 0.5 nM (listed 0.5 nM means ≤0.5 nM); read-out: EC50
ASSAY ENDPOINT: EC50 (nM)

>>> endpoint_value("Cc1cc(C2CCN(C(=O)C3CC3)CC2)ccc1NC1CCc2cccc(-c3cccc(-n4ncc(C(=O)O)c4C(F)(F)F)c3)c21 (single isomer, unassigned; (-)) [Example 6. b). (−)]")
24
>>> endpoint_value("CCc1cc(O[C@H]2CCc3cccc(-c4cccc(-n5ncc(C(=O)O)c5CC)n4)c32)ccc1C1CCN(C(=O)OCc2ccccc2)CC1")
2
>>> endpoint_value("Cc1cc(C2CCN(C(=O)C3CC3)CC2)ccc1NC1COc2cccc(-c3cccc(-n4ncc(C(=O)O)c4C)n3)c21 (single isomer, unassigned; (-)) [Example 34b]")
3.9
>>> endpoint_value("Cc1cc(C2CCN(C(=O)C3CC3)CC2)ccc1NC1CCc2cccc(-c3cccc(-n4ncc(C(=O)O)c4C(F)F)n3)c21 (single isomer, unassigned; (-)) [(−)-53-4]")
24
>>> endpoint_value("CCC(=O)N1CCC(c2ccc(NC3CCc4cccc(-c5cccc(-n6ncc(C(=O)O)c6C)n5)c43)c(C)c2)CC1 (single isomer, unassigned) [(+)-46-2]")
1
>>> endpoint_value("Cc1cc(C2CCN(C(=O)C3CC3)CC2)ccc1NC1CCc2cccc(-c3cccc(-n4ncc(C(=O)O)c4CC(F)(F)F)n3)c21 (single isomer, unassigned; (+))")
1
>>> endpoint_value("Cc1cc(C2CCN(C(=O)CC3CC3)CC2)ccc1NC1CCc2cccc(-c3cccc(-n4ncc(C(=O)O)c4C)n3)c21 (single isomer, unassigned; (+)) [(+)-46-3]")
1

###

SYSTEM TESTED: soluble guanylate cyclase (human GUCYA3 and GUCYB3) overexpressed in CHO cells (Homo sapiens (Human), UniProt Q02108+Q02153)
PROTOCOL NOTES: CHO cellular assay (cGMP production, Cisbio cGMP HTRF kit)
Type: cell-based
EXPERIMENTAL SETUP: CHO GUCY clone 8E10, cGMP production, assay buffer with 1 mM IBMX and 20 uM ODQ, 1 h room temperature; minimum quantification limit 0.5 nM (listed 0.5 nM means ≤0.5 nM); read-out: EC50
Procedure: Chinese hamster ovary (CHO) cells overexpressing soluble guanylate cyclase were generated to test the effect of sGC activators in a cellular context. Human cDNAs for GUCYA3 (RefSeq: NM_000856.3) and GUCYB3 (RefSeq: NM_000857.1) were amplified by PCR from a HUVEC (Human Umbilical Vein Endothelial Cells) cDNA library and cloned into mammalian expression vectors. […] The EC50s are calculated based on the amount of cGMP interpolated from the standard curve, using a 4-parameter sigmoidal dose-response.
ASSAY ENDPOINT: EC50 (nM)

>>> endpoint_value("Cc1cc(C2CCN(C(=O)C3CC3)CC2)ccc1CC1CCc2cccc(-c3cccc(-n4ncc(C(=O)O)c4C)n3)c21 (single isomer, unassigned; (-)) [Example 37. b). (−)]")
6.3
>>> endpoint_value("Cc1cc(C2CCN(C(=O)C3CC3)CC2)ccc1NC1CCc2cccc(-c3cccc(-n4ncc(C(=O)O)c4C)n3)c21 (single isomer, unassigned; (-)) [Example 7b]")
2.4
>>> endpoint_value("Cc1cc(C2CCN(C3CC3)CC2)ccc1CN1CCc2cccc(-c3cccc(-n4ncc(C(=O)O)c4C)n3)c21")
7.9

###

EC50 by entry:
SYSTEM TESTED: soluble guanylate cyclase (human GUCYA3 and GUCYB3) overexpressed in CHO cells (Homo sapiens (Human), UniProt Q02108+Q02153)
PROTOCOL NOTES: CHO cellular assay (cGMP production, Cisbio cGMP HTRF kit)
Format: cell-based
EXPERIMENTAL SETUP: CHO GUCY clone 8E10, cGMP production, assay buffer with 1 mM IBMX and 20 uM ODQ, 1 h room temperature; minimum quantification limit 0.5 nM (listed 0.5 nM means ≤0.5 nM); read-out: EC50
ASSAY ENDPOINT: EC50

>>> endpoint_value("CCc1cc(NC2CCc3cccc(-c4cccc(-n5ncc(C(=O)O)c5CC)n4)c32)ccc1C1CCN(C(=O)OC(C)C)CC1 (single isomer, unassigned; (+)) [Example 51a]")
"≤ 0.5 nM"
>>> endpoint_value("Cc1cc(C2CCN(C(=O)C3CC3)CC2)ccc1NC1CCc2cccc(-c3cccc(-n4ncc(C(=O)O)c4C(F)F)n3)c21 (single isomer, unassigned; (+)) [(+)-53-4]")
"≤ 0.5 nM"
>>> endpoint_value("CCc1c(C(=O)O)cnn1-c1cccc(-c2cccc3c2C(Cc2ccc(C4CCN(C(=O)C5CC5)CC4)cc2C)CC3)n1 (single isomer, unassigned; (+)) [38-3 (+)]")
"≤ 0.5 nM"

###

SYSTEM TESTED: soluble guanylate cyclase (human GUCYA3 and GUCYB3) overexpressed in CHO cells (Homo sapiens (Human), UniProt Q02108+Q02153)
PROTOCOL NOTES: CHO cellular assay (cGMP production, Cisbio cGMP HTRF kit)
Assay type: cell-based
EXPERIMENTAL SETUP: CHO GUCY clone 8E10, cGMP production, assay buffer with 1 mM IBMX and 20 uM ODQ, 1 h room temperature; minimum quantification limit 0.5 nM (listed 0.5 nM means ≤0.5 nM); read-out: EC50
pEC50: −log10 of the molar value.
ASSAY ENDPOINT: pEC50

>>> endpoint_value("O=C(O)c1cnn(-c2cccc(-c3cccc4c3C(Oc3ccc5c(c3)CCN(Cc3ccccn3)C5)CC4)n2)c1C(F)(F)F (single isomer, unassigned; (+)) [Example 4a]")
8.62
>>> endpoint_value("CCc1cc(CC2CCc3cccc(-c4cccc(-n5ncc(C(=O)O)c5CC)n4)c32)ccc1C1CCN(C(=O)OC)CC1 (single isomer, unassigned; (-)) [Example 41. b). (−)]")
7.74
>>> endpoint_value("Cc1cc(C2CCN(C(=O)CC3CC3)CC2)cc(F)c1NC1CCc2cccc(-c3cccc(-n4ncc(C(=O)O)c4C)n3)c21 (single isomer, unassigned; (+)) [(+)-53-3]")
8.46
>>> endpoint_value("O=C(O)c1cnn(-c2cccc(-c3cccc4ccn(Cc5ccc(C6CCN(C(=O)C7CC7)CC6)cc5)c34)n2)c1C(F)(F)F [Example 26]")
7.68

###

SYSTEM TESTED: soluble guanylate cyclase (human GUCYA3 and GUCYB3) overexpressed in CHO cells (Homo sapiens (Human), UniProt Q02108+Q02153)
PROTOCOL NOTES: CHO cellular assay (cGMP production, Cisbio cGMP HTRF kit)
Format: cell-based
EXPERIMENTAL SETUP: CHO GUCY clone 8E10, cGMP production, assay buffer with 1 mM IBMX and 20 uM ODQ, 1 h room temperature; minimum quantification limit 0.5 nM (listed 0.5 nM means ≤0.5 nM); read-out: EC50
pEC50: −log10 of the molar value.
ASSAY ENDPOINT: pEC50

>>> endpoint_value("CCc1cc(O[C@H]2CCc3cccc(-c4cccc(-n5ncc(C(=O)O)c5CC)n4)c32)ccc1C1CCN(S(C)(=O)=O)CC1 [Example 64-8]")
"≥ 9.30"
>>> endpoint_value("Cc1cc(C2CCN(C(=O)CC3CC3)CC2)c(F)cc1NC1CCc2cccc(-c3cccc(-n4ncc(C(=O)O)c4C)n3)c21 (single isomer, unassigned; (+)) [(+)-46-5]")
9.00
>>> endpoint_value("Cc1nnc(N2CCC(c3ccc(NC4CCc5cccc(-c6cccc(-n7ncc(C(=O)O)c7C)n6)c54)c(C)c3)CC2)o1 (single isomer, unassigned; (+)) [58. b). (+)]")
"≥ 9.30"
